Experiment: viability loss in pontine glioma line – cell-based, SU-DIPG-XXV, MIPE5.0, CellTiter-Glo, qHTS, dose response (AID 1347065);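 note: cells exposed to compound for 48 hours before ATP readout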
Settings: CellTiter-Glo ATP luminescence
Records with an inconclusive call do not appear. Active and inactive are the calls of the source. No cut-off is given here; in the data, nearly all actives have AC50 up to about 26 µM.
Please answer using one outcome listed in y for active, n for inactive

For COc1nc(C)cnc1NS(=O)(=O)c1cccnc1-c1ccc(-c2nnco2)cc1 , which call appears in the assay record?
n

For Nc1nc(-c2nn(Cc3ccccc3F)c3ncccc23)nc(N)c1N1CCOCC1 , which call appears in the assay record?
n

For Cc1ccc(NC(=O)c2ccc3c(c2)OCCO3)cc1NC(=O)c1ccc2nc(OCCN3CCCC3)ccc2c1 , which call appears in the assay record?
y

For CC(C)C(N)C(=O)OCC(CO)OCn1cnc2c(=O)[nH]c(N)nc21 (configuration not stated) , which call appears in the assay record?
n

For Cc1c(CN2CCC(Nc3ncnc4sc(CC(F)(F)F)cc34)CC2)ccc2c1cc(C#N)n2Cc1cn[nH]c1 , which call appears in the assay record?
y

For CN(C)N(C)C(=O)[C@@]1(Cc2ccccc2)CCCN(C(=O)[C@@H](Cc2c[nH]c3ccccc23)NC(=O)C(C)(C)N)C1 , which call appears in the assay record?
n

For CN(C)CCCNC(=O)c1ccc(-c2cc(O)c3ncccc3c2)cc1 , which call appears in the assay record?
n

For CCC(=O)N1CCOc2c(cc(-c3cc(OC)cc(OC)c3)cc2C(=O)N[C@H]2CCCN(C)C2)C1 , which call appears in the assay record?
n

For CC[C@H](/C=C/[C@@H](C)[C@H]1CC[C@H]2[C@@H]3CC=C4C[C@@H](O)CC[C@]4(C)[C@H]3CC[C@]12C)C(C)C , which call appears in the assay record?
n

For CC(C)C[C@H](NC(=O)[C@@H](NC(=O)c1cccc(-c2ccccc2)n1)[C@@H](C)O)B(O)O , which call appears in the assay record?
y

For CC(/C=C/C(=O)NO)=C\[C@@H](C)C(=O)c1ccc(N(C)C)cc1 , which call appears in the assay record?
y

For COC(=O)Nc1cc(Nc2cc(NC3CC3)c3ncc(C#N)n3n2)c(Cl)c(N2CCN(C)CC2)c1 , which call appears in the assay record?
y

For Cc1c(O)cccc1C(=O)NC(CSc1ccccc1)C(O)CN1CC2CCCCC2CC1C(=O)NC(C)(C)C (configuration not stated) , which call appears in the assay record?
y

For Cc1cc(Nc2ncnc3ccc(NC4=NC(C)(C)CO4)cc23)ccc1Oc1ccn2ncnc2c1 , which call appears in the assay record?
y

For Nc1cc(COc2c(Cl)cc(C[C@H](N)C(=O)O)cc2Cl)c2oc(-c3ccccc3)nc2c1 , which call appears in the assay record?
n

For CNCc1ccc(-c2cc(-c3nc(-c4ccc(S(=O)(=O)C(C)C)cc4)cnc3N)on2)cc1 , which call appears in the assay record?
y

For COc1cccc2cc(-c3nc(C4CCC(C(=O)O)CC4)n4ncnc(N)c34)[nH]c12 (configuration not stated) , which call appears in the assay record?
y

For c1ccc2c(-c3cnn4cc(-c5ccc(N6CCNCC6)cc5)cnc34)ccnc2c1 , which call appears in the assay record?
y

For NC(=O)[C@H]1CCS[C@@H]2C[C@]3(CCCN3C(=O)Cc3ccc(NC(=O)COc4ccc(Cl)cc4Cl)cc3)C(=O)N12 , which call appears in the assay record?
y

For CN1C(=O)[C@@H](NC(=O)c2cc(Cc3ccccc3)on2)COc2ccccc21 , which call appears in the assay record?
n

For Cc1ccc(S(=O)(=O)Cc2nc(-c3ccc(C(=O)NCc4cccnc4)cc3)oc2C)cc1 , which call appears in the assay record?
y

For CC(C)[C@](O)(c1ccc2cc(OC(F)F)c(OC(F)F)cc2c1)c1cn[nH]n1 , which call appears in the assay record?
n

For CCc1cc(-c2n[nH]c(C)c2-c2ccc3c(c2)OCCO3)c(O)cc1O , which call appears in the assay record?
y

For CC1(C)CNc2cc(NC(=O)c3cccnc3NCc3ccncc3)ccc21 , which call appears in the assay record?
y

For N#Cc1cccc(-c2c[nH]c3ncnc(N4CCOCC4)c23)c1 , which call appears in the assay record?
n

For C[C@H]1COCCN1c1cc(C2(S(=O)(=O)C3CC3)CC2)nc(-c2ccc(NC(=S)NCCO)cc2)n1 , which call appears in the assay record?
y

For CC(C)C[C@H](NC(=O)CNC(=O)c1cc(Cl)ccc1Cl)B(O)O , which call appears in the assay record?
y

For COc1ccc(Oc2cc(NCCC(F)(F)F)c3ncc(-c4ccc(C(=O)NC5CC5)c(C)c4)n3n2)c(F)c1F , which call appears in the assay record?
y

For CC(=O)N[C@H]1CSSC[C@@H](C(N)=O)NC(=O)[C@H](C(C)C)NC(=O)[C@H](C)NC(=O)[C@H](Cc2cnc[nH]2)NC1=O , which call appears in the assay record?
n

For NC(=O)c1ccccc1Nc1ccnc(Nc2cccc(O)c2)n1 , which call appears in the assay record?
y

For COc1nc(OCc2cccc(-c3ccccc3)c2C)ccc1CNCCNC(C)=O , which call appears in the assay record?
y

For CCN1CCN(c2ccc(Nc3cc(N(C)C(=O)Nc4c(Cl)c(OC)cc(OC)c4Cl)ncn3)cc2)CC1 , which call appears in the assay record?
y

For Cc1ccc(-c2nn(C(C)(C)CNC(=O)c3ccncc3)c3ncnc(N)c23)cc1 , which call appears in the assay record?
y

For Cc1c(F)cccc1NC(=O)Nc1ccc(Cl)c(S(=O)(=O)[C@H]2CCCNC2)c1O , which call appears in the assay record?
n

For C/C(=N\NC(=S)N1CCC1)c1ccccn1 , which call appears in the assay record?
y

For Cc1ccc(NC(=O)c2cccc(C(C)(C)C#N)c2)cc1Nc1ccc2ncn(C)c(=O)c2c1 , which call appears in the assay record?
y

For Cc1cccc(Oc2cnc(=O)[nH]c2)c1 , which call appears in the assay record?
n

// provenance: PubChem BioAssay
